test system: U2OS; assay: Multiplex assay against U2OS; format: toxicity, cell-based; conditions: human, 48 h, 1 µM, compound concentration 1 uM, replicate 1
assay.endpoint: Population Fragmented Nuclei (%)
A complete answer gives the number and then names the unit.

Examples with their reported Population Fragmented Nuclei (%) follow.
{"columns": ["molecule", "assay.endpoint", "recorded.value"],
 "data": [
  ["Cc1cn(-c2cc(NC(=O)c3ccc(C)c(Nc4nccc(-c5cccnc5)n4)c3)cc(C(F)(F)F)c2)cn1 [NILOTINIB]", "Population Fragmented Nuclei (%)", "14%"],
  ["O=C(Cc1ccc(-c2ccc(OCCN3CCOCC3)cc2)cn1)NCc1ccccc1 [TIRBANIBULIN]", "Population Fragmented Nuclei (%)", "24%"],
  ["CN1CCC(=C2c3ccccc3CC(=O)c3sccc32)CC1.O=C(O)/C=C/C(=O)O [KETOTIFEN FUMARATE]", "Population Fragmented Nuclei (%)", "4%"],
  ["COc1cc(N2CCN(C)CC2)ccc1Nc1ncc2c(n1)N(C)c1ccccc1C(=O)N2C", "Population Fragmented Nuclei (%)", "7%"],
  ["Cc1ccc(C(=O)Nc2cccc(C(F)(F)F)c2)cc1Nc1nc(-c2cccnc2)nc2c1cnn2C", "Population Fragmented Nuclei (%)", "11%"]
]}

Consider the following items and state reported Population Fragmented Nuclei (%) for each.
1. O=C(Nc1ccc(Cl)cc1)Nc1cccc(-c2cccc(N3CCCC3)n2)c1
2. CN(C)C(=O)C(CCN1CCC(O)(c2ccc(Cl)cc2)CC1)(c1ccccc1)c1ccccc1.Cl [LOPERAMIDE HYDROCHLORIDE]
3. CCN1CCN(Cc2ccc(Nc3ncc(F)c(-c4cc(F)c5nc(C)n(C(C)C)c5c4)n3)nc2)CC1.CS(=O)(=O)O
4. O=C1NC(=O)C(c2cnc3ccccn23)=C1c1cn2c3c(cc(F)cc13)CN(C(=O)N1CCCCC1)CC2 [LY-2090314]
5. CCn1c(=O)c(-c2ccc(-c3cncs3)cc2Cl)cc2cnc(Nc3ccc(N4CCN(C)CC4)cc3)nc21
6. CCCn1c(=O)c2[nH]c(-c3cnn(Cc4cccc(C(F)(F)F)c4)c3)nc2n(CC)c1=O [GS 6201]

4%
6%
26%
15%
6%
8%

Consider the following items and state reported Population Fragmented Nuclei (%) for each.
1. S=C(NCCCc1c[nH]cn1)NCCCN(Cc1ccc(Cl)c(Cl)c1)c1ccc(Br)cn1
2. CCc1cccc(CC)c1NC(=O)c1nn(C)c2c1CCc1cnc(Nc3ccc(C(=O)NC4CCN(C)CC4)cc3OC(F)(F)F)nc1-2
3. O=C(Nc1ccc(-c2ccnc(Nc3ccc(N4CCOCC4)cc3)n2)cc1)[C@@H]1CCCN1
4. CNc1cc(Oc2cc(C(=O)Nc3cc(N4CCN(C)CC4)cc(C(F)(F)F)c3)ccc2C)ncn1
5. Cc1cc(C)c(S(=O)(=O)N(Cc2ccc(-c3cccc(S(C)(=O)=O)c3)cc2)Cc2ccc(C(F)(F)F)o2)c(C)c1

1. 10%
2. 19%
3. 5%
4. 21%
5. 6%
